System: CCRF-CEM
Assay: NCI tumour cell line growth inhibition, 48 h
The source made the active and inactive calls. Cut-off read from the data, not from the text of the source: active = GI50 up to about 1.1 µM and inactive = higher.
Hello, when you answer, please use one of the following outcomes: y (active), n (inactive)

MOLECULE	TARGET OR SYSTEM	ANSWER LABEL
O=C1O[C@@H](c2ccccc2)C[C@H]1CN1CCOCC1	CCRF-CEM	n
COC(CC1(OC)OC(=O)C=C1N)OC (stereo unspecified)	CCRF-CEM	n
COc1ccc2c(c1)c(=O)c1c(NCCN(C)C)ccc3c(=O)n(CCN(C)C)c(=O)n2c31	CCRF-CEM	y
COC(=O)C(C)(NC(=O)C(CC(=O)OC(C)(C)C)NC(=O)OC(C)(C)C)c1ccccc1 (stereo unspecified)	CCRF-CEM	n
CNc1nc(=O)c(C#N)c(-c2ccc(C)cc2)s1	CCRF-CEM	n

Here's the next entry for you.
input: Fill in: this test's call for "O=C(c1cccs1)N1CCCN(C(=O)c2cccs2)C1=S" is ___
output: n

The values you see were collected from ChEMBL document CHEMBL1201862.
